# ASSAY_PROTOCOL: HUVEC growth inhibition – cell-based, human, primary screen (AID 575);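 further: 100% = median of untreated cell wells with 0.1% DMSO on each plate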
# RECORDED_CONDITIONS: HUVEC proliferation, CellTiter-Glo luminescence, 72 h; at 10 µM; stronger effect = lower value
Threshold-based label: viability under 80% gives 1, viability not under 80% gives -1.

// known answers, use as guide
Does `COc1ccc(Cc2nnc(NC(=O)Cc3cccs3)s2)cc1` have viability strictly under 80%?
-1

Does `Cc1sc2c(c1C)CN(C1CC(C)(C)NC(C)(C)C1)CN2C(=O)c1ccco1` have viability strictly under 80%?
1

Does `O=C(OCc1ccc2c(c1)OCO2)c1ccc(S(=O)(=O)N2CCCCC2)cc1` have viability strictly under 80%?
1

Does CCCOc1ccc(N2C(=O)C3ON(c4ccccc4)C(c4ccc(O)c(OC)c4)C3C2=O)cc1 (stereo unspecified) have viability strictly under 80%?
1

Does `O=C(NCc1nnc(SCC(=O)N2CCCCCC2)o1)c1ccco1` have viability strictly under 80%?
-1

Does `COC(=O)CSc1cc(C)nc(NC(C)=O)n1` have viability strictly under 80%?
-1

Does `O=C(CCn1c(=O)sc2ccccc21)Nc1nccs1` have viability strictly under 80%?
-1

Does `CC(C)(S)[C@@H](N)C(=O)O` have viability strictly under 80%?
-1

---
Does `COc1ccc(C)cc1S(=O)(=O)N(CC(=O)O)c1ccccc1` have viability strictly under 80%?
-1

Does `Cc1nn(C)c(C)c1CN(C)C(=O)c1cc2nc(-c3ccco3)cc(C(F)(F)F)n2n1` have viability strictly under 80%?
-1

Does `CCOC(=O)N1CCN(c2cc3nccnc3cc2F)CC1` have viability strictly under 80%?
-1

* * *

# ASSAY_PROTOCOL: RAM signaling pathway blockade in yeast – S. cerevisiae, Pdr1DBD-CYC8 efflux-inhibited sensitized strain, primary screen (AID 1298);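 further: 0% = DMSO untreated cells without growth and 100% = 10 µM 1-NA-PP1 full growth; higher means more yeast growth rescued from 5-FOA killing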
# RECORDED_CONDITIONS: S. cerevisiae cbk1-as DSE1-URA3 strain, 5-FOA growth OD615, 2 d; at 50 µM; stronger effect = higher value
OBSERVED_PROPERTY: RAM network inhibition (%)
One number for each entry, in %.

Value of measured RAM network inhibition for the entry COC(=O)C(Cc1ccccc1)NC(=O)CSc1nc(C)cc(=O)[nH]1 (stereo unspecified) : -0.21

Value of measured RAM network inhibition for the entry c1ccc(N2CCN(C3CCSC3)CC2)cc1 (stereo unspecified) : -1.2

Value of measured RAM network inhibition for the entry `Cc1c(C)[n+](=O)c(-c2ccc(F)cc2)c(C)n1[O-]` : 4.01

# batch: return RAM network inhibition for each of the 5 compounds below
1. CCOC(=O)c1c(NC(=O)c2ccc(Cl)s2)sc(C)c1C
2. O=C(Cn1cc2c(n1)CCCC2)NCCCN1CCCC1
3. Cc1noc(NS(=O)(=O)c2ccc(NC(=O)COc3ccc(Cl)cc3Cl)cc2)c1C
4. Cc1cccc(N2CCN(C(=O)C3CCN(c4nnc(-n5cccc5)s4)CC3)CC2C)c1 (stereo unspecified)
5. O=C(Nc1nn[nH]n1)c1cccc(Oc2ccccc2)c1

1. 5.6
2. 1.62
3. 7.51
4. 2.84
5. 7.27

* * *

# ASSAY_PROTOCOL: RAM signaling pathway blockade in yeast – S. cerevisiae, Pdr1DBD-CYC8 efflux-inhibited sensitized strain, primary screen (AID 1298);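 further: 0% = DMSO untreated cells without growth and 100% = 10 µM 1-NA-PP1 full growth; higher means more yeast growth rescued from 5-FOA killing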
# RECORDED_CONDITIONS: S. cerevisiae cbk1-as DSE1-URA3 strain, 5-FOA growth OD615, 2 d; at 50 µM; stronger effect = higher value
OBSERVED_PROPERTY: RAM network inhibition (%)
One number for each entry, in %.

Use these answered entries as a reference point.
Value of measured RAM network inhibition for the entry `COc1ccc(CCNc2oc(-c3ccc(C)cc3)nc2C#N)cc1OC` : -0.47

Value of measured RAM network inhibition for the entry `Cc1ccc(-n2nnc3c(=O)n(CC(=O)NCc4ccco4)cnc32)cc1` : 7.68

Value of measured RAM network inhibition for the entry Cc1cccc(-n2ncc3c(N4CC(C)CC(C)C4)ncnc32)c1 (stereo unspecified) : 6.19

Value of measured RAM network inhibition for the entry O=C(Nc1cccnc1)C(Cc1ccccc1)n1cccc1 (stereo unspecified) : 4.6

Value of measured RAM network inhibition for the entry `N#Cc1cccc(NC(=O)NCCc2c[nH]c3ccccc23)c1` : 4.4

Now let's try a different one.
Value of measured RAM network inhibition for the entry `CC(C)N1CC(O)=C(c2ccccc2)C1=N` : 4.5

* * *

# ASSAY_PROTOCOL: OD615 S. cerevisiae growth inhibition, permissive medium, pilot counter-assay, permissive growth control for S. cerevisiae lifespan shortening project (AID 705)
# RECORDED_CONDITIONS: OD615, 24 h, at 10 µM, stronger effect = higher value
OBSERVED_PROPERTY: growth inhibition (%)
Give bare numbers, in %.

Value of measured growth inhibition for the entry `CCOC(=O)c1nnn(-c2nonc2N)c1COc1ccccc1` : -15.7

Value of measured growth inhibition for the entry `O=c1c2[nH]c3ccc(F)cc3c2ncn1CCN1CCN(Cc2ccccc2)CC1` : -2.19

Value of measured growth inhibition for the entry COCCOC(=O)C1=C(C)NC2=C(C(=O)CC(C)(C)C2)C1c1ccc(N(C)C)cc1 (stereo not drawn) : -16.1

Value of measured growth inhibition for the entry `CCC(=O)N1CCc2cc(Br)cc(S(=O)(=O)N3CCN(c4ccccn4)CC3)c21` : -6.54

Value of measured growth inhibition for the entry `O=C(CSc1nc(-c2ccncc2)nn1CC(=O)N1CCCCC1)NC1CCCC1` : -4.01

Value of measured growth inhibition for the entry `O=c1c2cnn(-c3ccccc3)c2ncn1Cc1ccccc1F` : -1.06

# batch: return growth inhibition for each of the 2 compounds below
1. O=C(NCC1CCCO1)c1ccc2c(c1)C(=O)N(C1CCCCC1)C2=O (stereo not drawn)
2. C=CCNC(=O)c1ccc(C)cc1Cl

1. -10.7
2. -13.3

# batch: return growth inhibition for each of the 5 compounds below
1. CCCC(=O)C1=C(O)C(C(=O)OC)C(C)(C)CC1=N (stereo not drawn)
2. Cc1ccc(O)c(-c2cc(C(F)(F)C(F)F)[nH]n2)c1
3. COc1ccc(S(=O)(=O)Cc2ccc(C(=O)N3CCc4ccccc4C3)o2)cc1
4. COc1ccc(OC)c(N(CC(=O)Nc2ccc3c(c2)OCO3)S(=O)(=O)c2ccccc2)c1
5. CCCCCN=C(C)c1c(O)c2ccccc2oc1=O

1.4
-5.95
-5.74
-11.4
1.51

# batch: return growth inhibition for each of the 7 compounds below
1. CCN(CCCNS(=O)(=O)c1ccc2c(c1)CCN2C(C)=O)c1cccc(C)c1
2. CCOc1ccc2nc(N3CCC(C(=O)Nc4nnc(CC)s4)CC3)sc2c1
3. N#Cc1ccccc1N=C1CCCN1Cc1ccccc1
4. Cc1ccc(NC(=O)C2C3C=CC4(CN(Cc5cccnc5)C(=O)C24)O3)cc1F (stereo not drawn)
5. Cc1ccc2c(c1)NC(=O)C(CC(=O)NCCCN1CCCCC1C)O2 (stereo not drawn)
6. Clc1ccccc1-c1ccc(/C=N/n2cnnc2)o1
7. Cc1cc(NCc2ccc3c(c2)OCO3)n2nc(C)nc2n1

-4.96
-13.1
-3.08
-0.35
6.71
-1.67
-16.8

* * *

# ASSAY_PROTOCOL: Restrictive medium S. cerevisiae growth inhibition, OD615, pilot screen of yeast lifespan reduction project, restrictive growth control (AID 706);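 further: modified DeaD lifespan yeast strain shifted to restrictive glucose medium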
# RECORDED_CONDITIONS: OD615, 48 h, at 10 µM, stronger effect = higher value
OBSERVED_PROPERTY: growth inhibition (%)
Numbers only, in %.

Use these answered entries as a reference point.
Value of measured growth inhibition for the entry `O=S(=O)(NCCSc1nnc(-c2ccco2)n1-c1ccccc1)c1ccccc1` : -19.2

Value of measured growth inhibition for the entry `CCOc1ccccc1-c1nc(C(N)=O)c2[nH]c(=O)n(-c3ccc(F)cc3)c2n1` : -0.005

Value of measured growth inhibition for the entry `COc1ccc(-c2nnc3ccc(SCC(=O)N4CCOCC4)nn23)cc1` : 30.1

Value of measured growth inhibition for the entry `Cc1cc(Nc2ncc(Cl)cc2Cl)n(-c2ccccn2)n1` : 3.23

# batch: return growth inhibition for each of the 8 molecules below
1. Cc1cccc(N2CCN(C(=O)c3cc4c(=O)n(C)c5ccccc5c4n3C)CC2)c1C
2. CCOC(=O)C1CCCN(C(=O)C2CCN(c3nnc(-n4cccc4)s3)CC2)C1 (stereo not drawn)
3. O=C(OC1CCCCC1)c1ccc(NC(=O)c2ccco2)cc1
4. NC(=O)C1CCN(c2nc(C3CC3)nc3c2nnn3Cc2ccccc2Cl)CC1
5. CCCOC(=O)CSC1=C(C#N)C(c2ccccc2Cl)CC(=O)N1 (stereo not drawn)
6. O=C(NCc1ccco1)c1ccc(CN2CCOCC2)cc1
7. CCCCN1C(=O)C(O)(CC(=O)c2ccccc2OC)c2ccccc21 (stereo not drawn)
8. COc1cc(CNC(=O)OCC(C)C)cc(OC)c1OC

-6.91
2.6
-7.55
-3.43
-25.7
1.69
-5.6
-20.8

# batch: return growth inhibition for each of the 6 molecules below
1. CC1CCN(c2nnc(N3CCC(C)CC3)c3ccccc23)CC1
2. Cc1cc(C)cc(-c2nc(-c3ccncc3)no2)c1
3. COc1ccccc1C1(CC(=O)O)CCOC(C)(C)C1 (stereo not drawn)
4. CCOC(=O)CSC1=C(C#N)C(c2ccccc2Cl)C(C(=O)OC)C(=O)N1 (stereo not drawn)
5. CC(=O)N1CCC(N(CCCOC(C)C)C(=O)Nc2ccc(Cl)cc2)CC1
6. CCCCCn1c(CNC(=O)COC)nc2ccccc21

[-14.8, 15.9, -9.79, -0.68, 0.145, -2.4]

# batch: return growth inhibition for each of the 5 molecules below
1. CCC(C)[C@@H](C(=O)Nc1ccc2c(c1)OCO2)N1Cc2ccccc2C1=O (stereo partly drawn)
2. CN(C)c1oc(-c2ccccc2Cl)nc1S(=O)(=O)c1ccccc1
3. CC(=O)c1ccc(C(=O)Nc2nnc(-c3ccc(Cl)cc3)o2)cc1
4. N#Cc1c2n(cnc1=O)CCCCC2
5. CC1(C)Cc2nc(-c3ccccc3)n3cnnc3c2CO1

1. -13.5
2. 0.09
3. 17
4. 3.32
5. -4.3
